Kindly state switch fluorescence ratio for each of the entries shown.
System: ATP;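 further: ATP exposure 15 min at 22 °C before imaging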
Test: switch fluorescence ratio, 500 uM ATP over buffer (Cy3 cluster intensity, sum of 5 cycles each) (fold (ratio)); higher = stronger signal-on switching upon ATP binding; sequences stand for … in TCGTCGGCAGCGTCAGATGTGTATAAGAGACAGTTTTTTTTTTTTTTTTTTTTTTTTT…TC
Settings: aptamer strand: ATP DNA aptamer (quencher-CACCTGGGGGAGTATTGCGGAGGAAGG + anchor), 100 nM annealed; ATP concentration: 500 uM
One number for each entry.

sequence.entry	switch fluorescence ratio
AAATTGGGAG	1.02
AGGGGCGGTC	1.03
TAAATGCGGG	0.975

I need switch fluorescence ratio for every entry listed below, if you could help.
1. GGGCAAAATG
2. GGTCACAAGA
3. ATTTTAATTG
4. CTCGTTCGGC
5. TGGAAAGGAG
6. TTATGGGTCA

Result:
0.981
1
1.02
0.98
1.02
0.983

====

System: ATP;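 further: ATP exposure 15 min at 22 °C before imaging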
Experiment: switch fluorescence ratio, 500 uM ATP over buffer (Cy3 cluster intensity, sum of 5 cycles each) (fold (ratio)); higher = stronger signal-on switching upon ATP binding; sequences stand for … in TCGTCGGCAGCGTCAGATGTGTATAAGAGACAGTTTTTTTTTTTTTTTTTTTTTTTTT…TC
Conditions: aptamer strand: ATP DNA aptamer (quencher-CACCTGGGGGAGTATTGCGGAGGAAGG + anchor), 100 nM annealed; ATP concentration: 500 uM
Given measured switch fluorescence ratio, output class 1 if it is greater than or equal to 1 and class 0 if not.

Reference set (5 entries):
sequence.entry	target.or.system	classification
TGAGCAGCTG	ATP	class 0
CTTAAAATGG	ATP	class 1
TTTTACTAGA	ATP	class 1
TTGAATATCT	ATP	class 1
TTTTGTGAGA	ATP	class 1

Task: For this sequence, is measured switch fluorescence ratio 1 or higher? ATGCAGCAGT
Result: class 1

====

Tested on: ATP;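 further: ATP exposure 15 min at 22 °C before imaging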
Test: switch fluorescence ratio, 500 uM ATP over buffer (Cy3 cluster intensity, sum of 5 cycles each) (fold (ratio)); higher = stronger signal-on switching upon ATP binding; sequences stand for … in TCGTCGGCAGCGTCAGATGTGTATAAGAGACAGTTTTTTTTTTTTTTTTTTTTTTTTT…TC
Conditions: aptamer strand: ATP DNA aptamer (quencher-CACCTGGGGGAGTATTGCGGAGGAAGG + anchor), 100 nM annealed; ATP concentration: 500 uM
Kindly state switch fluorescence ratio for each of the entries shown.
One number for each entry.

Example sequences with recorded switch fluorescence ratio:
sequence.entry	switch fluorescence ratio
AGTGGGACGC	1
GCCCGGATTT	1

I need switch fluorescence ratio for every entry listed below, if you could help.
1. CAGCATGTTT
2. TTTAATTGGG
3. TGGAGAGGTC
4. TAGGGGAGGT
5. GGGGTAAAAA
6. GACGGTAAAG
7. CACTGTCGAT

Result:
0.988
0.983
0.999
1.01
1.01
0.996
1.02

I need switch fluorescence ratio for every entry listed below, if you could help.
1. TTTGATTGGA
2. TGGTATAGTT
3. TAAGAGACGG
4. TTGTGTTTAG

Result:
1.02
0.981
0.991
1.02

I need switch fluorescence ratio for every entry listed below, if you could help.
1. GATGTGCGTG
2. ATTTCAAATA

Result:
[0.996, 1.01]

====

Kindly state switch fluorescence ratio for each of the entries shown.
Test system: ATP;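 further: ATP exposure 15 min at 22 °C before imaging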
Assay: switch fluorescence ratio, 500 uM ATP over buffer (Cy3 cluster intensity, sum of 5 cycles each) (fold (ratio)); higher = stronger signal-on switching upon ATP binding; sequences stand for … in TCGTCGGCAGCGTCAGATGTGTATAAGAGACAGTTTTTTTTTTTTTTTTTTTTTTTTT…TC
Settings: aptamer strand: ATP DNA aptamer (quencher-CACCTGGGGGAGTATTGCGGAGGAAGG + anchor), 100 nM annealed; ATP concentration: 500 uM
Give bare numbers.

I need switch fluorescence ratio for every entry listed below, if you could help.
1. GATGGTTGCG
2. ATACGGGAAT
3. AGTCGGGTTC
4. AATGAAGGTC
5. ATATTCGGAA
6. CCCCTGGATA
7. GTTCCTGGGG

Result:
1: 1.02; 2: 1.05; 3: 0.973; 4: 0.965; 5: 0.994; 6: 1.03; 7: 1.03

I need switch fluorescence ratio for every entry listed below, if you could help.
1. GATCGGCGTG
2. TAGAACAGTT
3. CAGTAGGTCT
4. GCCGTGGGGC

Result:
1
0.998
1.01
0.997

I need switch fluorescence ratio for every entry listed below, if you could help.
1. AGAGGTGTCT
2. CATTTATATG
3. ACTGTGCGTA

Result:
1: 1; 2: 1.02; 3: 1.03

====

Tested on: ATP;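 further: ATP exposure 15 min at 22 °C before imaging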
Assay: switch fluorescence ratio, 500 uM ATP over buffer (Cy3 cluster intensity, sum of 5 cycles each) (fold (ratio)); higher = stronger signal-on switching upon ATP binding; sequences stand for … in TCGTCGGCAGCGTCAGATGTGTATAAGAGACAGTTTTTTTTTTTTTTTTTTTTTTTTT…TC
Conditions: aptamer strand: ATP DNA aptamer (quencher-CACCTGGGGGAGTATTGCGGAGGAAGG + anchor), 100 nM annealed; ATP concentration: 500 uM
measurement.name: switch fluorescence ratio
Give bare numbers.

sequence.entry	target.or.system	value.observed
GATAGTAGC	ATP	0.978
GGGTTTTCAT	ATP	0.993
ATTCTGTTTT	ATP	0.986
GTTGGATGGA	ATP	0.997
TGGTTTCCGT	ATP	0.991

I need switch fluorescence ratio for every entry listed below, if you could help.
1. GCAGGAGTTG
2. CTGGGTTGGC
3. GGTTATTGGG

Result:
1. 0.978
2. 1
3. 0.98

====

Test system: ATP;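 further: ATP exposure 15 min at 22 °C before imaging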
Assay: switch fluorescence ratio, 500 uM ATP over buffer (Cy3 cluster intensity, sum of 5 cycles each) (fold (ratio)); higher = stronger signal-on switching upon ATP binding; sequences stand for … in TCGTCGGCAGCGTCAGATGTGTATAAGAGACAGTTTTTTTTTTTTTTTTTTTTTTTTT…TC
Details: aptamer strand: ATP DNA aptamer (quencher-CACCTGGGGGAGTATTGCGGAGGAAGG + anchor), 100 nM annealed; ATP concentration: 500 uM
Kindly state switch fluorescence ratio for each of the entries shown.
One number for each entry.

sequence.entry	target.or.system	value.observed
ATTGTTTTGC	ATP	1.01

I need switch fluorescence ratio for every entry listed below, if you could help.
1. ATTATACGGG
2. TCGTTTTATT

Result:
1.05
0.992

I need switch fluorescence ratio for every entry listed below, if you could help.
1. TGGGTAACAT
2. TGTGTATTGT

Result:
1: 0.99; 2: 0.985

====

Kindly state switch fluorescence ratio for each of the entries shown.
System: ATP;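 further: ATP exposure 15 min at 22 °C before imaging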
Assay: switch fluorescence ratio, 500 uM ATP over buffer (Cy3 cluster intensity, sum of 5 cycles each) (fold (ratio)); higher = stronger signal-on switching upon ATP binding; sequences stand for … in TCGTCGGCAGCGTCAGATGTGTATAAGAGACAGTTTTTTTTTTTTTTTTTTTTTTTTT…TC
Settings: aptamer strand: ATP DNA aptamer (quencher-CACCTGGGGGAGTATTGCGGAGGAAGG + anchor), 100 nM annealed; ATP concentration: 500 uM
Give bare numbers.

Example sequences with recorded switch fluorescence ratio:
sequence.entry	target.or.system	switch fluorescence ratio
TTAGTGAGGT	ATP	1
CCTGCTGTTC	ATP	1.51
GGTCCGGGGA	ATP	0.989
CGGGGGGGCG	ATP	1.03
GGCTCACTAG	ATP	1.01

I need switch fluorescence ratio for every entry listed below, if you could help.
1. GTTTAAACGT
2. TGTTTGGATT
3. CAAGGATTTA
4. GCATGTATAG

Result:
[1.02, 0.988, 1.02, 1.02]

====

Test system: ATP;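 further: ATP exposure 15 min at 22 °C before imaging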
Test: switch fluorescence ratio, 500 uM ATP over buffer (Cy3 cluster intensity, sum of 5 cycles each) (fold (ratio)); higher = stronger signal-on switching upon ATP binding; sequences stand for … in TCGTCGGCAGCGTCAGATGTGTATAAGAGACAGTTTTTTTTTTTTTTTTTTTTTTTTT…TC
Details: aptamer strand: ATP DNA aptamer (quencher-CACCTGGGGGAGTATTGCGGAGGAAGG + anchor), 100 nM annealed; ATP concentration: 500 uM
measurement.name: switch fluorescence ratio
Numbers only.

I need switch fluorescence ratio for every entry listed below, if you could help.
1. TACTTTTTGG
2. TATAAATGTG
3. CTGGCGGATT

Result:
0.987
0.978
0.985

I need switch fluorescence ratio for every entry listed below, if you could help.
1. ACTCTAGTTC
2. TTCTCGGACG

Result:
[1.06, 0.991]

====

Test system: ATP;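 further: ATP exposure 15 min at 22 °C before imaging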
Assay: switch fluorescence ratio, 500 uM ATP over buffer (Cy3 cluster intensity, sum of 5 cycles each) (fold (ratio)); higher = stronger signal-on switching upon ATP binding; sequences stand for … in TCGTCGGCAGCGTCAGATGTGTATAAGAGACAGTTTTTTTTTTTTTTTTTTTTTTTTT…TC
Details: aptamer strand: ATP DNA aptamer (quencher-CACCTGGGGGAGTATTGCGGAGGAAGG + anchor), 100 nM annealed; ATP concentration: 500 uM
Kindly state switch fluorescence ratio for each of the entries shown.
Numbers only.

Example sequences with recorded switch fluorescence ratio:
sequence.entry	target.or.system	value.observed
AAGGGTATGC	ATP	1
AGCACTTTTC	ATP	1.02
ACCCGAGCAT	ATP	1.79
TGGTTTTTGT	ATP	1.1
TGGTGCGGGC	ATP	1.05

I need switch fluorescence ratio for every entry listed below, if you could help.
1. TTGGGGTTGT
2. CATTTCAGG
3. AACTATGATG
4. CCGGGTGGGG

Result:
1.03
1.05
0.996
1.04

Data provenance is the supplement of paper PMC10126150.
